Entries annotated with measured protein stability index
B1: SMTNL2 (parent)
chain: QKNFELAFTMAENLANCERLIEVE

Variants of: B1
Protocol summary: protein stability index of a GFP-peptide fusion (GPS, HEK-293T) (PSI 1-6); higher = more stable;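 note: lentivirally expressed fusions sorted by FACS into six bins by GFP to DsRed ratio, PSI derived from sequencing read proportions per bin multiplied by bin number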
Experimental setup: c terminus: a fixed tail appended

{"columns": ["Mutation name", "protein stability index"],
 "data": [
  ["E24V", 1.45],
  ["T9A", 1.37],
  ["A15D", 3.49],
  ["M10G", 4.33],
  ["L6A", 3.32],
  ["T9S", 1.98],
  ["I21R", 2.44],
  ["N3Q", 1.81],
  ["A11P", 3.85],
  ["A15N", 2.04],
  ["N3Y", 1.96],
  ["V23R", 2.21],
  ["F8E", 3.82],
  ["L14T", 3.79],
  ["N13Q", 1.68],
  ["C17N", 4.09],
  ["T9R", 1.13],
  ["L20I", 2.31],
  ["E12Q", 1.87],
  ["E5G", 2.52],
  ["F4A", 2.45],
  ["R19L", 1.55],
  ["A7Y", 2.08],
  ["N3T", 2.09],
  ["A15S", 1.46],
  ["F4E", 2.94],
  ["I21E", 4.62],
  ["L6S", 2.19],
  ["M10W", 1.41],
  ["E5Q", 1.25],
  ["A11I", 4.18],
  ["A7D", 2.85],
  ["A11G", 2.04],
  ["N3M", 3.62],
  ["L14D", 4.44],
  ["I21D", 4.39],
  ["A7L", 1.22],
  ["F8H", 2.33],
  ["E24A", 2.84],
  ["E12I", 1.74],
  ["N3D", 3.28],
  ["A15Y", 1.84],
  ["L6P", 3.62],
  ["A15L", 1.52],
  ["L14F", 3.11],
  ["V23C", 2.21],
  ["E22P", 2.82],
  ["L6T", 2.01],
  ["L14P", 3.89],
  ["F4H", 1.98],
  ["N13H", 1.41],
  ["E22K", 2.71],
  ["R19C", 1.83],
  ["F4S", 3.4],
  ["M10E", 4.17],
  ["I21T", 4.29],
  ["E18V", 1],
  ["R19I", 2.57],
  ["C17R", 3.51],
  ["R19F", 2.86],
  ["L6Q", 2.54],
  ["A7C", 2.56],
  ["E18N", 2.22],
  ["T9I", 3.12],
  ["K2P", 2.24],
  ["L20F", 2.15],
  ["K2V", 1.67],
  ["N16L", 2.73],
  ["E22N", 1.68],
  ["T9E", 2.9],
  ["T9K", 1.39],
  ["C17P", 4.29],
  ["Q1G", 1.2],
  ["E22D", 1.72],
  ["A15T", 1.32],
  ["E18R", 1.85],
  ["R19N", 3.03],
  ["E24M", 1.89],
  ["L20V", 1.27],
  ["T9P", 3.3],
  ["N13C", 2.69],
  ["L14R", 3.92],
  ["E24C", 1.42],
  ["Q1V", 1.54],
  ["E22H", 1.88],
  ["A7Q", 2.58],
  ["N13W", 2],
  ["V23D", 1.77],
  ["N16F", 1.36],
  ["T9H", 1.96],
  ["L6G", 3.23]
]}
